Measured values drawn from PubChem BioAssay for this set.

methodDescription: inhibitors of E-selectin induction by TNFa, primary screen, imaging, HUVEC, immunofluorescence, MLSMR starter and 10KST1 sets (AID 487);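 further: signal is fraction of cell area covered by stained E-selectin grains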
conditionsUsed: HUVEC TNFalpha-induced E-selectin immunofluorescence imaging, at 2 µM
Activity calls are given as the source filed them.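 How the source made its calls: active means visually confirmed hit in the image check and inhibition above 20%; inconclusive means visually confirmed hit but inhibition not above 20%; inactive means no visual hit in the image check.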
Give one outcome, nothing more. List: active, inactive

Worked examples follow.
# compound, group
rows = [
    ("CCOc1cccc(C(=O)N(Cc2ccc(F)cc2)C2CCS(=O)(=O)C2)c1 (stereo not drawn)", "inactive"),
    ("Cc1cc(NCCNC2=CC(=O)CCC2)nc2ccccc12", "inactive"),
    ("O=C(NCc1nc2ccccc2[nH]1)c1ccc(Cl)c(S(=O)(=O)N2CCCC2)c1", "inactive"),
    ("CCc1nnc(NC(=O)C2Cc3ccccc3CN2S(=O)(=O)c2cccs2)s1 (stereo not drawn)", "inactive"),
    ("CCOC(=O)c1[nH]c2ccccc2c1NC(=O)CN(C)C", "inactive"),
]

# fetch the recorded call for COc1cccc(C=NCCNC(=O)c2nonc2N)c1O here
inactive

Subsequent entry: Nc1c2c(nc3ccccc13)N(c1ccccc1)CC2
active

Subsequent entry: CN(CCCCCNC(=O)/C=N/O)Cc1ccccc1
inactive

Subsequent entry: COc1ccc(-c2nnc(SCCC(=O)O)n2-c2ccccc2)cc1
inactive

Subsequent entry: CCN1CCc2c(C#N)c(NCc3ccccc3)nc(N(CC)CC)c2C1
inactive

Subsequent entry: CCCCN(C)C(=O)CS(=O)(=O)Cc1nc(-c2cccc(OC)c2)oc1C
inactive

Subsequent entry: COc1cccc(CNC(=O)Cn2c(=O)oc3ccccc32)c1OC
inactive

----------
methodDescription: DUSP6 inhibitors restoring Erk phosphorylation by chemical complementation, primary imaging in DUSP6-transfected HeLa (AID 609)
conditionsUsed: HeLa MKP-3 transfected, phospho-Erk imaging KS statistic; measured here: nuclear pErk red intensity z-score; at 10 µM; stronger effect = higher value; cells stimulated with TPA for 15 min
resultType: z-score
One number for each entry.

Study these solved cases before continuing.
# molecule, dataValue
data = [
    ("COc1ccc(/C(O)=C2/C(=O)C(=O)N(Cc3ccco3)C2c2cccs2)cc1 (configuration not stated)", -1.07),
    ("CC(C)c1nc(NCCN2CCOCC2)c(C#N)c2c1COC(C)(C)C2", 1.4),
    ("O=C(OCCN1CCOCC1)c1ccc2c(c1)OCCO2", 0.434),
    ("O=C(CC1SC2=NCCN2C1=O)Nc1ccccc1 (configuration not stated)", 0.504),
    ("O=C(NCc1ccco1)c1ccc(=O)[nH]n1", -1.39),
    ("CCOc1ccc(N2C(=O)CC(N)C2=O)cc1 (configuration not stated)", 0.161),
    ("Cc1ccc(-c2nn(C)c(=O)c3ccccc23)cc1CN1CCOCC1", -0.955),
    ("Cc1c(C)c2cc(Cl)c(O)c(CN3CCCC(C)C3)c2oc1=O (configuration not stated)", -1.58),
]

Could you tell me z-score for each of these molecules? They are listed below.
1. OC1(C2(O)CC(c3ccccc3)ON2)CCCCC1 (configuration not stated)
2. O=C(NCCN1CCOCC1)c1ccc(=O)oc1
3. CN(CCCCCNC(=O)/C=N/O)Cc1ccccc1
4. CCOc1ccc2c(c1)n([O-])c1c([n+]2=O)CCCC1
5. Cc1cc(C)n(CC2CC(=O)N(c3ccc(F)c(Cl)c3)C2=O)n1 (configuration not stated)
6. CCC(CC)n1[nH]c(=O)cc1N
7. FC(F)(F)c1cccc(-n2cccc2/C=N/n2cnnc2)c1
8. COc1ccccc1C1/C(=C(/O)c2ccc(C)cc2)C(=O)C(=O)N1CCN1CCOCC1 (configuration not stated)

[-1.51, 0.0878, -0.452, -1.91, -1.56, -0.418, 1.88, 0.136]

Could you tell me z-score for each of these molecules? They are listed below.
1. CCOC(=O)C(C)c1nc2ccccc2[nH]c1=O (configuration not stated)
2. COC(=O)C(NC(=O)c1ccco1)(Nc1ccc(Br)cn1)C(F)(F)F (configuration not stated)
3. CCn1c(SCC(=O)N2CCOCC2)nc2sc3c(c2c1=O)CCCC3
4. C=C(C)CC1N(c2cccc(OC)c2)C(=O)[C@@H]2C(C(=O)O)[C@H]3C=C[C@@]12O3 (some centres not stated)
5. CC1(C)Cc2c(C#N)c(N3CCN(C(=O)c4ccco4)CC3)nc(-c3ccco3)c2CS1
6. Cn1ncc2nc[nH]c(=O)c21

[0.462, 1.11, 0.641, 1.46, -2.48, 1.26]

Could you tell me z-score for each of these molecules? They are listed below.
1. CCSc1nc2sc3c(c2c(=O)n1C1CCCCC1)CCN(C)C3
2. COc1ccc(C2=CC(c3ccc(C)cc3)n3nnnc3N2)cc1 (configuration not stated)
3. N#CC(C#N)C(c1ccsc1)c1c(-c2ccccc2)[nH][nH]c1=O (configuration not stated)
4. COC(=O)CSc1nc(N)nc(C)c1Br

1. 0.504
2. 0.752
3. 0.886
4. 0.0816

Reported z-score for COc1ccc(C(=O)OC(C)CN2CCN(C)CC2)cc1OC (configuration not stated) : what is it?
1.37

----------
experimentalSystem: Voltage-gated potassium channel subunit beta-2 (Rattus norvegicus) (UniProt P62483)
Sequence (P62483 whole entry, looked up): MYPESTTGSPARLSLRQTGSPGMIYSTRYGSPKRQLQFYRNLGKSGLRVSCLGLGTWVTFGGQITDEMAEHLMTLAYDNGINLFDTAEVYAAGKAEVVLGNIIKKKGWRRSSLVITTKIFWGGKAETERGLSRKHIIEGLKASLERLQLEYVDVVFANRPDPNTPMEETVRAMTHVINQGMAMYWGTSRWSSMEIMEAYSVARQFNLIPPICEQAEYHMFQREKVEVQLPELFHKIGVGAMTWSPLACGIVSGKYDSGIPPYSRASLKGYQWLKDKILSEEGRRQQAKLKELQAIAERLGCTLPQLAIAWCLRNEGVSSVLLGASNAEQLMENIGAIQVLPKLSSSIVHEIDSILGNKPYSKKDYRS
methodDescription: KvBeta positive modulators, primary screen, biochemical, NADPH fluorescence (AID 623);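 further: fluorescence intensity change per second fitted from 20 to 320 s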
conditionsUsed: Recombinant KvBeta, NADPH fluorescence decrease slope, 10 min; at 10 µM; stronger effect = lower value
The source made the active and inactive calls.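 How the source made its calls: active means NADPH fluorescence slope more negative than the mean of all samples by about 3 SD, 99.7% confidence; inactive means the rest.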
Exercise: for every item that follows, state its recorded NADPH fluorescence slope.

Study these solved cases before continuing.
# compound, experimentalSystem, NADPH fluorescence slope
data = [
    ("Clc1ccc(C2=Nn3c(nnc3-c3n[nH]c4c3CCC4)SC2)cc1Cl", "Voltage-gated potassium channel subunit beta-2 (Rattus norvegicus) (UniProt P62483)", "1.2e-05 (inactive)"),
    ("O=C(NCc1ccc(F)cc1)C1CCN(C(=O)NCc2ccccc2)CC1", "Voltage-gated potassium channel subunit beta-2 (Rattus norvegicus) (UniProt P62483)", "-4.9e-05 (inactive)"),
    ("Cc1ccccc1COc1ccc(/C(O)=C2/C(=O)C(=O)N(CCCn3ccnc3)C2c2ccco2)cc1 (stereo unspecified)", "Voltage-gated potassium channel subunit beta-2 (Rattus norvegicus) (UniProt P62483)", "-0.00012 (inactive)"),
    ("C=CCn1c(C)cc(C(=O)CSc2nc3ccccc3o2)c1C", "Voltage-gated potassium channel subunit beta-2 (Rattus norvegicus) (UniProt P62483)", "-5.9e-05 (inactive)"),
    ("COc1ccc(-c2nnnn2C)cc1S(=O)(=O)NCc1ccccc1", "Voltage-gated potassium channel subunit beta-2 (Rattus norvegicus) (UniProt P62483)", "5.2e-06 (inactive)"),
]

Reported NADPH fluorescence slope for CCOc1ccc(CNc2ccc3c(c2)ncn3C)cc1 : what is it?
-1.3e-05 (inactive)

----------
experimentalSystem: Muscarinic acetylcholine receptor M4 (Homo sapiens)
methodDescription: compounds altering M4/GIRK thallium flux, either direction, primary screen, M4 allosteric agonist project, cell-based, HEK293 M4/GIRK, BTC-AM (AID 625);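 further: thallium influx through GIRK channels coupled to M4 in HEK293 cells with BTC-AM dye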
conditionsUsed: at 10 µM, actives lie on both sides
Quick rule for you: fluorescence slope at 0.006 or higher means T, lower means F.

# compound, group
records = [
    ("N#Cc1c(NCCCO)nc(-c2ccccc2)c2c1CCCC2", "F"),
    ("NC(=O)C1CCN(C2OC(=O)c3ccccc32)CC1 (stereo unspecified)", "F"),
    ("O=C(Nc1ccccc1)c1cc(N2CCOCC2)nc2ccccc12", "F"),
]

Hello, I need to know if COc1ccc(CSC2=NCCN2)cc1Cl has measured fluorescence slope not below 0.006. Thanks!
F

Subsequent entry: N#Cc1nc(-c2cccs2)oc1NCc1ccccc1
T

Subsequent entry: CC(C)(C)c1cc(-c2ccco2)c(C#N)c(SCC#N)n1
T

Subsequent entry: CN1CCc2c(n(CC(O)CN3C(=O)c4ccccc4S3(=O)=O)c3ccccc23)C1=O (stereo unspecified)
F

Subsequent entry: CCOC(=O)NC(Nc1sc2c(c1C(=O)OC)CCN(C)C2)(C(F)(F)F)C(F)(F)F
T

----------
experimentalSystem: Voltage-gated potassium channel subunit beta-2 (Rattus norvegicus) (UniProt P62483)
methodDescription: KvBeta enzyme negative modulators, primary screen, biochemical, NADPH fluorescence (AID 622);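 further: slope of raw intensity against log time taken from 70 to 1610 s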
conditionsUsed: recombinant KvBeta, 4-cyanobenzaldehyde reduction, at 10 µM, stronger effect = higher value
resultType: fluorescence slope
Answers are plain numbers.

Study these solved cases before continuing.
# compound, dataValue
data = [
    ("CCCCS(=O)(=O)NC1=NCN(C2CCN(Cc3ccccc3)CC2)CN1", -0.572),
    ("Cn1c(N2CCN(c3ccccn3)CC2)nc2c1c(=O)n(Cc1ccc(Cl)cc1)c(=O)n2C", -0.498),
    ("O=C1CN(C(=O)COC(=O)c2ccccc2NC(=O)c2ccco2)c2ccccc2N1", -0.507),
    ("CCN1C(=O)c2ccccc2S(=O)c2ccc(C(=O)NC3CC3)cc21 (stereo unspecified)", -0.505),
    ("CCOC(=O)NC1(C(F)(F)F)C(=O)NC(C)=C1C#N (stereo unspecified)", -0.427),
]

Could you tell me fluorescence slope for each of these compounds? They are listed below.
1. Cc1ccc(CSC2=NCCN2C(=O)c2ccco2)cc1
2. O=S1(=O)C=C(Oc2ccc(F)cc2)c2ccccc21
3. CCCCCOc1ccc(C2NC(=O)NC2=O)cc1 (stereo unspecified)
4. CCCCN(C)C(=O)CS(=O)(=O)Cc1nc(-c2cccc(OC)c2)oc1C
5. CCOCCCNC(=O)C1CCCN(S(=O)(=O)CC)C1 (stereo unspecified)
6. Cc1ccc(NC(=O)CCC(=O)O)cc1F

1. -0.613
2. -0.321
3. -0.561
4. -0.518
5. -0.408
6. -0.508
